Test system: HT29 colon
Assay: NCI tumour cell line growth inhibition, 48 h
Where a SMILES comes first, the peptide text is derived from it. [ ]: non-standard residue; d: D form. The star is where a group is joined. ξ: configuration not given here. dIva = CC[C@@](C)(N)C(=O)O; Aib = CC(C)(N)C(=O)O; ξP = O=C(O)C1CCCN1; βAla = NCCC(=O)O; X5 = OCN*
endpointLabel: TGI

Solved entries:
compound | systemUnderTest | endpointLabel | measuredResult
N#CC1([N+](=O)[O-])C=C1c1ccccc1 (stereo not given) | HT29 colon | TGI | > 100 µM
CCOC(=O)C(C(=O)OCC)C(NC(=O)Nc1cc(C(F)(F)F)ccc1OC)(C(F)(F)F)C(F)(F)F | HT29 colon | TGI | 92.1 µM
CC1=C(C(=O)NCc2ccccc2)C(c2ccccc2O)C(C(=O)NCc2ccccc2)=C(C)N1 | HT29 colon | TGI | 38.5 µM
Cc1ccc(S(=O)(=O)NC(=O)NCC(=O)O)cc1 | HT29 colon | TGI | > 100 µM
NS(=O)(=O)c1ccc(N=Nc2c(=O)[nH]c3ccc4[nH]cccc4c23)cc1 | HT29 colon | TGI | > 25 µM
CC(=O)Nc1cc(CN2CCCCC2)c(O)c2ncccc12 | HT29 colon | TGI | > 100 µM

Query TGI for CC1SC(c2cccc(Cl)c2)N(NC(=O)C(O)c2ccccc2)C1=O (stereo not given) > 100 µM

Query TGI for "O=c1[nH]c(Br)nc2c(N3CCCCC3)c[nH]c12" > 100 µM

Query TGI for CC(C)CC1NC(=O)C(C(C)C)NC(=O)CC(C)COC(=O)C(CC(C)C)N(C)C(=O)C(C(C)C)NC(=O)C(C(C)C)OC1=O (stereo not given) > 50 µM

Query TGI for CC[C@@](C)(NC(=O)[C@H](C)NC(=O)CCNC(=O)C(C)(C)NC(=O)[C@H](C)NC(=O)[C@@H]1CCCN1C(=O)[C@@](C)(CC)NC(=O)[C@H](Cc1ccccc1)NC(=O)C1CCCN1C(=O)C(C)(C)NC(=O)C1CCCN1C(=O)C(C)(C)NC(C)=O)C(=O)NCCC(=O)N[C@@H](CC(C)C)C(=O)NC(C)(C)C(=O)NCCC(=O)N[C@@H](CC(C)C)C(=O)NC(C)(C)C(=O)NC(C)(C)C(=O)N[C@@H](CC(C)C)C(=O)NCCC(=O)NCO (stereo not given in full) (Ac-[Aib][ξP][Aib][ξP]F[dIva]PA[Aib][βAla]A[dIva][βAla]L[Aib][βAla]L[Aib][Aib]L[βAla]-X5) 0.414 µM

Query TGI for "CN1CCN(Cc2ccc(NC(=O)c3cncc(C#Cc4ncc5ccccn45)c3)cc2C(F)(F)F)CC1" 8.96 µM

====

Here, each record is paired with measured GI50 data.
Tested on: A498 renal
Experiment: NCI tumour cell line growth inhibition, 48 h

Determine reported GI50 for "COc1ccc(CNC(=O)c2c(C)n([O-])c3cc(F)c(F)cc3[n+]2=O)cc1" ; test system: A498 renal. 16.1 µM

Determine reported GI50 for "COc1cc[nH]c1/C=C1\C(=O)Nc2ccc([N+](=O)[O-])c(N3CC[C@@H](O)C3)c21" ; test system: A498 renal. 0.182 µM

Determine reported GI50 for "CSc1nc(-c2cccc(NC(=O)CCl)c2)c(C#N)c(=O)n1C" ; test system: A498 renal. 5.51 µM

====

Test system: MCF7 breast
Assay: NCI tumour cell line growth inhibition, 48 h; in the data active = GI50 below about 0.43 µM; inactive = the rest
Outcomes you can answer with include only these: active, inactive

Please review the following examples before continuing.
molecule | group
Nc1cc(N)c2nc(-c3ccccc3)c(Oc3ccc(Cl)c(Cl)c3)nc2c1 | inactive
Nc1nc(N)c(-c2ccc(Cl)cc2)c(/C=C/c2ccc([N+](=O)[O-])cc2)n1 | inactive
COC(=O)[C@]1(C)CC[C@]2(C)CC[C@]3(C)C(=CC(=O)[C@@H]4[C@@]5(C)CCC(=O)NC(C)(C)[C@@H]5CC[C@]43C)[C@@H]2C1 | inactive
CNCC1CCn2c(c(C3=C(c4cn(C)c5ccccc45)C(=O)NC3=O)c3ccccc32)C1 (stereo not given) | inactive
O=C(N/N=C/c1cccc(O)c1)c1ccc(C(F)(F)F)nc1Nc1cccc(C(F)(F)F)c1 | inactive
COn1cc(C(=O)N=C(SC)SC)c2ccccc21 | inactive
CCC(=O)Oc1ccc(/C=N/NC(N)=S)nc1 | inactive
CN1C(=O)C(C)(C)Oc2c(-c3cn(C)c(=O)c4[nH]ccc34)cc(S(C)(=O)=O)cc21 | active

What is the recorded call for this molecule in the test? "NC(N)=N/N=C/c1ccc(Br)cc1" inactive

What is the recorded call for this molecule in the test? CC(CNc1nc(Nc2ccc(Cl)c(Cl)c2)nc(C(Cl)(Cl)Cl)n1)N(C)C (stereo not given) inactive

====

Tested on: HCT-116 colon
Test: NCI tumour cell line growth inhibition, 48 h
endpointLabel: TGI

molecule | endpointLabel | measuredResult
COC(=O)C(C(=O)C(=O)Nc1ccc(N)cc1[N+](=O)[O-])c1nc2ccc(Cl)cc2[nH]c1=O (configuration not stated) | TGI | > 100 µM
NC(=O)N/N=C/c1ccccc1O | TGI | > 100 µM
COc1ccccc1NC1=NCC(C)S1 (configuration not stated) | TGI | > 100 µM
CC(=O)NC1=CC(=O)C=C(Cl)C1=O | TGI | > 100 µM
O=S1Cc2ccccc2CSS1 (configuration not stated) | TGI | 28.3 µM

Query TGI for C=C1CC(CC(=O)C(C)CC2CC(=C)C(=O)O2)OC1=O (configuration not stated) 24.6 µM

Query TGI for "COc1cc[nH]c1/C=C1\C(=O)Nc2ccc([N+](=O)[O-])c(N3CC[C@@H](O)C3)c21" 25 µM

Query TGI for "CCOC(=O)c1c(CN2CCOCC2)n(Cc2ccccc2)c2c1cc(O)c1nc(C)c(C)nc12" > 100 µM

Query TGI for "Cc1ccc(NCc2nnc3c(-c4ccccc4)nc4ccccc4n23)cc1" > 100 µM

Query TGI for "Cc1cccc(/C=C2\CCCCCC2=O)c1" > 100 µM

Query TGI for "NC(N)=NC(N)=NCc1ccco1" > 1250 µM

Query TGI for "N#CC(CC(=O)O)=C(c1ccccc1)c1ccccc1" > 100 µM

====

Here, each record is paired with measured TGI data.
Tested on: HOP-92 NSCLC
Assay: NCI tumour cell line growth inhibition, 48 h
Kindly answer with a numeric value in µM, unit omitted.

Solved entries:
compound | unitOfMeasurement | measuredResult
O=C1/C(=C/c2cccc(F)c2)CN(C(=O)C(Cl)Cl)C/C1=C\c1cccc(F)c1 | µM | 1.44
CCCNC(=O)c1cc(NC(=O)c2cc(NC(=O)CCS(=O)(=O)OC)cn2C)cn1C | µM | 47
Nc1nc(Cl)c2ncn(Cc3ccc(-c4ccc(CCl)cc4)cc3)c2n1 | µM | 23.6

Next, consider the following compound.
Query TGI for CC(=O)Nc1ccc2c3c(cc(O)c2c1)N(C(=O)CCCCCC(=O)Nc1ccc2c4c(cc(O)c2c1)N(C(=O)OC(C)(C)C)CC4CCl)CC3CCl (stereo not given) 23.7

====

Test system: OVCAR-5 ovarian
Test: NCI tumour cell line growth inhibition, 48 h
endpointLabel: TGI

Solved entries:
compound | systemUnderTest | measuredResult
Cc1ccc(C(=O)N/N=C(\N=Nc2ccccc2)c2ccc(N(CCC#N)CCC#N)cc2C)cc1 | OVCAR-5 ovarian | > 100 µM
CCCCCC/C(CC(=O)CCC(=O)NCCc1ccccc1)=N\NC(=O)c1ccc2ccccc2c1O | OVCAR-5 ovarian | 54.2 µM
CC1CC2(C)CC(=O)C1C1C(=O)N(CCN3CCOCC3)C(=O)C12 (configuration not stated) | OVCAR-5 ovarian | > 100 µM
C[C@H](CCCOS(C)(=O)=O)[C@H]1CC[C@H]2[C@@H]3CC[C@@H]4C[C@H](OS(C)(=O)=O)CC[C@]4(C)[C@H]3CC[C@]12C | OVCAR-5 ovarian | > 2500 µM
COc1cc(C2S/C(=C/c3ccccc3)C(=O)N2c2ccccn2)cc(OC)c1OC (configuration not stated) | OVCAR-5 ovarian | 41.2 µM

Query TGI for "C=C(C)COC(=O)COCC(=O)OCC(=C)C" > 100 µM

Query TGI for CC1CC/C(=C\c2ccc(F)cc2)C2=C1C(c1ccc(F)cc1)n1c(s/c(=C\c3ccc(Cl)cc3)c1=O)=N2 (configuration not stated) > 100 µM

====

Here, each record is paired with measured TGI data.
Tested on: HT29 colon
Experiment: NCI tumour cell line growth inhibition, 48 h

Solved entries:
compound | TGI
C[C@H](c1ccc(Cl)cc1[N+](=O)[O-])N1C(=O)c2cc(I)ccc2NC(=O)[C@H]1c1ccc(Cl)cc1 | > 100 µM
ClCCCN1CCCCC1CCl (stereo unspecified) | > 100 µM

Query TGI for OCC(O)C(O)C(C=NNc1ncnc2ccc(Br)cc12)=NNc1ncnc2ccc(Br)cc12 (stereo unspecified) > 100 µM

Query TGI for "C/C(=N\NS(=O)(=O)c1ccccc1)c1ccc[n+]([O-])n1" > 100 µM

Query TGI for "CCCC(=O)Oc1cc(OC(=O)CCC)c2c(C)cc(=O)oc2c1" > 100 µM

Query TGI for "Cc1ccccc1NC(=O)CC(=O)n1nc(-c2ccccc2)c(N=Nc2ccc([N+](=O)[O-])cc2)c1-c1ccccc1" 24.5 µM

Query TGI for "COc1cc(N(CCC#N)CCC#N)ccc1/C(N=Nc1cccc(C)c1)=N\NC(=O)c1ccc(C)cc1" > 100 µM

Query TGI for "CSc1nc(-c2cccc(NC(=O)CCl)c2)c(C#N)c(=O)n1C" 3.9 µM

Query TGI for "NC(=O)N=Nc1c2ccccc2n2[nH]ccc12" > 100 µM

Query TGI for "N#CCCn1c(CCC(=O)Nc2ccc(Cl)cc2Cl)n[nH]c1=S" > 100 µM

Query TGI for "O=[N+]([O-])c1ccc2nc(=S)[nH]n2c1" > 100 µM

Data origin: PubChem BioAssay (NCI)
